// data source = patent US10770169B2

test system: panel of 55 breast cancer cell lines; assay: Cell growth inhibition assay (Cell Titer Glo, 72 h, 9 doses; GI50, TGI, LC50); assay type: cell-based, human; settings: Homo sapiens, HCC1500, HCC1500 cell line; censored GI50 values; read-out: GI50 (converted)
Where a name gives a salt, the structure may show the parent alone.
GI50 by entry:
ENDPOINT LABEL: GI50 (nM)

{"MOLECULE": "CO[C@H]1C[C@@H]2CC[C@@H](C)[C@@](O)(O2)C(=O)C(=O)N2CCCC[C@H]2C(=O)O[C@H]([C@H](C)C[C@@H]2CC[C@@H](O)[C@H](OC)C2)CC(=O)[C@H](C)/C=C(\\C)[C@@H](O)[C@@H](OC)C(=O)[C@H](C)C[C@H](C)/C=C/C=C/C=C/1C [Rapamycin]", "VALUE": 93300}
{"MOLECULE": "C#Cc1cccc(Nc2ncnc3cc(OCCOC)c(OCCOC)cc23)c1 [Erlotinib]", "VALUE": 6460}
{"MOLECULE": "CCN(CC)CCNC(=O)c1c(C)[nH]c(/C=C2\\C(=O)Nc3ccc(F)cc32)c1C [Sunitinib Malate]", "VALUE": 6460}
{"MOLECULE": "COc1cc(Nc2c(C#N)cnc3cc(OCCCN4CCN(C)CC4)c(OC)cc23)c(Cl)cc1Cl [Bosutinib]", "VALUE": 2570}
{"MOLECULE": "COC1=C2C[C@@H](C)C[C@H](OC)[C@H](O)[C@@H](C)/C=C(\\C)[C@H](OC(N)=O)[C@@H](OC)/C=C\\C=C(/C)C(=O)NC(=CC1=O)C2=O [Geldanamycin]", "VALUE": 155}
{"MOLECULE": "COc1cc2ncnc(Nc3ccc(F)c(Cl)c3)c2cc1OCCCN1CCOCC1 [Iressa]", "VALUE": 8130}
{"MOLECULE": "Nc1nc2[nH]cc(CCc3ccc(C(=O)N[C@@H](CCC(=O)O)C(=O)O)cc3)c2c(=O)[nH]1 [Pemetrexed]", "VALUE": 501}
{"MOLECULE": "CCCCCN(C)CCC(O)(P(=O)(O)O)P(=O)(O)O [Ibandronate sodium salt]", "VALUE": 38000}
{"MOLECULE": "COc1cccc2c1C(=O)c1c(O)c3c(c(O)c1C2=O)C[C@@](O)(C(=O)CO)C[C@@H]3O[C@H]1C[C@H](N)[C@@H](O)[C@H](C)O1 [Epirubicin]", "VALUE": 245}
{"MOLECULE": "CO[C@H]1C[C@@H]2CC[C@@H](C)[C@@](O)(O2)C(=O)C(=O)N2CCCC[C@H]2C(=O)O[C@H]([C@H](C)C[C@@H]2CC[C@@H](OC(=O)C(C)(CO)CO)[C@H](OC)C2)CC(=O)[C@H](C)/C=C(\\C)[C@@H](O)[C@@H](OC)C(=O)[C@H](C)C[C@H](C)/C=C/C=C/C=C/1C [Temsirolimus]", "VALUE": 24500}
{"MOLECULE": "C/C(=C\\c1csc(C)n1)[C@@H]1C[C@@H]2O[C@]2(C)CCC[C@H](C)[C@H](O)[C@@H](C)C(=O)C(C)(C)[C@@H](O)CC(=O)N1 [Ixabepilone]", "VALUE": 3.24}
{"MOLECULE": "CN(Cc1cnc2nc(N)nc(N)c2n1)c1ccc(C(=O)N[C@@H](CCC(=O)O)C(=O)O)cc1 [Methotrexate]", "VALUE": 30.9}
{"MOLECULE": "COc1cc([C@@H]2c3cc4c(cc3[C@@H](O[C@@H]3O[C@@H]5CO[C@@H](C)O[C@H]5[C@H](O)[C@H]3O)[C@H]3COC(=O)[C@H]23)OCO4)cc(OC)c1O [Etoposide]", "VALUE": 1410}
{"MOLECULE": "Cc1[nH]c2ccccc2c1CCNCc1ccc(/C=C/C(=O)NO)cc1 [LBH589]", "VALUE": 162}
{"MOLECULE": "CNC(=O)c1cc(Oc2ccc(NC(=O)Nc3ccc(Cl)c(C(F)(F)F)c3)cc2)ccn1 [Sorafenib]", "VALUE": 178000}
